# pEC50 annotations
# measured.target: GLP-1R (Homo sapiens, UniProt P43220)
# Construct: host or cells: GLP-1R CRE-bla CHO-K1 cells
# Sequence (P43220 24-463): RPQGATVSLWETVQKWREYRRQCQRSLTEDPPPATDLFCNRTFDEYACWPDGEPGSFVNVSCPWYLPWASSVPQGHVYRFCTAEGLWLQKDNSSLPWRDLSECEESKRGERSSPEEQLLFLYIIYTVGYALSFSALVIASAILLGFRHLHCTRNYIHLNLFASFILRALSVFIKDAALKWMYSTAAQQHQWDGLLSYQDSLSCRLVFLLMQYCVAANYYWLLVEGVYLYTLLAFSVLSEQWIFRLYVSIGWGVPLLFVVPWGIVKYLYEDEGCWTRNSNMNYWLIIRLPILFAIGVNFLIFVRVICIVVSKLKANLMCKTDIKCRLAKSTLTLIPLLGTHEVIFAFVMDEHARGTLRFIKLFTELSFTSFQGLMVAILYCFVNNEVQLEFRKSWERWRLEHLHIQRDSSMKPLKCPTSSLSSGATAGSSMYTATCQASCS
# Sequence (P01275 100-127 partner limits assumed): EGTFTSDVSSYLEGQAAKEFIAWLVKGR
# protocol.description: EC20 GLP-1(9-36) PAM cAMP assay: dose response of compound in the presence of fixed concentration of GLP-1(9-36)
# Assay type: cell-based
# run.parameters: GLP-1R CRE-bla CHO-K1 cells, compound dose response with fixed concentration of GLP-1(9-36), read-out: EC20 GLP-1(9-36) PAM EC50
pEC50: −log10 of the molar value.

Recorded results for 4 molecules are shown here.
{"columns": ["molecule", "measured.target", "pEC50"],
 "data": [
  ["CCCc1ccc(C2CN(c3cnc(-c4ccc(C[C@H](NC(=O)c5ccc(C(C)(C)C)s5)C(=O)N5CC(C(=O)O)C5)cc4)nc3)C2)cc1 [Compound 1502]", "GLP-1R (Homo sapiens, UniProt P43220)", "5.30 to 5.60"],
  ["CCC[C@H]1CC[C@H](C2CCN(c3cnc(-c4ccc(CC(NC(=O)c5ccc(C(C)(C)C)s5)C(=O)NS(=O)(=O)CCN(C)C)cc4)nc3)CC2)CC1 (stereo partly shown) [Compound 1547]", "GLP-1R (Homo sapiens, UniProt P43220)", "> 6.10"],
  ["CCC[C@H]1CC[C@H](C2CCN(c3cnc(-c4ccc(C[C@H](NC(=O)c5ccc(C(C)C)cc5)C(=O)N5CC(C(=O)O)C5)cc4)nc3)CC2)CC1 [Compound 1536]", "GLP-1R (Homo sapiens, UniProt P43220)", "> 6.10"],
  ["CCCc1ccc(-c2ccc(-c3cnc(-c4ccc(C[C@H](NC(=O)c5ccc(C(F)(F)F)cc5)C(=O)N5CC(C(=O)O)C5)cc4)nc3)c(F)c2)cc1 [Compound 1400]", "GLP-1R (Homo sapiens, UniProt P43220)", "> 6.10"]
]}

Looking up CC[C@H]1CC[C@H](c2ccc(-c3cnc(-c4ccc(C[C@H](NC(=O)c5ccc(C(C)(C)C)s5)C(=O)N5C6CCC5C(C(=O)O)C6)cc4)nc3)cc2)CC1 (stereo partly shown) [Compound 1321] , I see its pEC50 listed as 5.60 to 6.10

Looking up CCC(CC)Oc1ccc(-c2ccc(-c3cnc(-c4ccc(C[C@H](NC(=O)c5ccc(C(C)(C)C)s5)C(=O)N[C@H](C)C(=O)O)cc4)nc3)cc2)cc1 [Compound 1298] , I see its pEC50 listed as > 6.10

Looking up CCC[C@H]1CC[C@H](C2CCN(c3cnc(-c4ccc(C[C@H](NC(=O)c5ccc(C(C)(C)C)s5)C(=O)N[C@H](Cc5c[nH]cn5)C(=O)O)cc4)nc3)CC2)CC1 [Compound 1446] , I see its pEC50 listed as > 6.10

Looking up CCC[C@H]1CC[C@H](C2CCN(c3cnc(-c4ccc(C[C@H](NC(=O)c5ccc(C(C)(C)C)s5)C(=O)O)cc4)nc3)CC2)CC1 [Compound 1439] , I see its pEC50 listed as > 6.10

Looking up CCC[C@H]1CC[C@H](C2CCN(c3cnc(-c4ccc(C[C@H](NC(=O)c5ccc(C(C)(C)C)s5)C(=O)N[C@@H](C(=O)O)C5CC5)cc4)nc3)CC2)CC1 [Compound 1444] , I see its pEC50 listed as > 6.10

Looking up CC[C@H]1CC[C@H](c2ccc(-c3cnc(-c4ccc(C[C@@H](NC(=O)c5ccc(C(C)(C)C)s5)C(=O)N[C@@H](C)C(=O)O)cc4)nc3)cc2)CC1 [Compound 1270] , I see its pEC50 listed as 5.60 to 6.10
